biological target: hα7-wt nAChR-expressing cells (Homo sapiens); construct: expressed in transfected cells; host or cells: hα7-wt nAChR-expressing cells; test: Ca2+ flux imaging (FDSS) (Protocol B), PAM activity with choline 100 μM; format: cell-based; details: according to Ex. D.1b; read-out: % Efficacy
Sequence (P36544 23-502): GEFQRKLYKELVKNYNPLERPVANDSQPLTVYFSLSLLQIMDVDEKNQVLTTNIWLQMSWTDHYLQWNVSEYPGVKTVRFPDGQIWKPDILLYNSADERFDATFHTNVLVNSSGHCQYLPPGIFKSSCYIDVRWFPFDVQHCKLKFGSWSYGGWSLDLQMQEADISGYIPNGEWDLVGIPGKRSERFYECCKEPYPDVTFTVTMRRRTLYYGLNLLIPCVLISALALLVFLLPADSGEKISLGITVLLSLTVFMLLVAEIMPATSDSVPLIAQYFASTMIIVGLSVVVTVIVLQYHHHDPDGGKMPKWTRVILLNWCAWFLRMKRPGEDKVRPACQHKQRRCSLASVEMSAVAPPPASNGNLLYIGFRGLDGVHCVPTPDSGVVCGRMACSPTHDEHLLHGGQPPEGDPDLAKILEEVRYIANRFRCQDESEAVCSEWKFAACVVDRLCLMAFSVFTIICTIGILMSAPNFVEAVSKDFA
Measured Emax accompanies every entry in the list below.
The figure you give is taken to be in %; do not add the unit.

CHEMICAL_SMILES | Emax, %
Cc1nccc(-n2nc(Nc3cccc(Cl)c3F)nc2CC(=O)NCC2CC2)c1C | 327

For the next question, use this compound.
## Task Which value of Emax has been reported for Cc1cc(-n2nc(Nc3cc(F)cc(F)c3)nc2CC(=O)NC2CC2)cc(C)n1 in the records?
## Result 382
